System: hiPSC-derived neurons co-cultured with human primary astrocytes in 3D
assay procedure: Ca2+ transient oscillation assay (FDSS), 3D spheroids
Type: cell-based
condition label: 0.11 µM; 60 min
attribute measured: Peak amplitude - 3D Mean (% change from baseline)
Hi! Could you send only the number? It should be in % change from baseline, unit omitted.

   chemical_structure        attribute_measured  value_reported
0          NCCCC(=O)O  Peak amplitude - 3D Mean            87.8

Turning now to a further record.
Exam item: Given the entry CC1(C)S[C@@H]2[C@H](NC(=O)[C@H](N)c3ccc(O)cc3)C(=O)N2[C@H]1C(=O)O , report its measured Peak amplitude - 3D Mean.
Marked response: 136.9

* * *

System: hiPSC-derived neurons co-cultured with human primary astrocytes in 2D
assay procedure: Ca2+ transient oscillation assay (FDSS), 2D co-culture
Type: cell-based
condition label: Homo sapiens, 1 h; 1 µM; 60 min; read-out: Peak amplitude - 2D Mean
attribute measured: activation at 1 µM (%)
Hi! Could you send only the number? It should be in %, unit omitted.

Consider the reported activation at 1 µM for these molecules:
>>> df
                   chemical_structure  result_unit  value_reported
0  C[C@]12N[C@H](Cc3ccccc31)c1ccccc12            %           -58.6
1    CN(C)CCCN1c2ccccc2Sc2ccc(Cl)cc21            %            -4.3
2                          NCCCC(=O)O            %            -1.4

Exam item: Given the entry CN1CCN(C2=Nc3cc(Cl)ccc3Nc3ccccc32)CC1 , report its measured activation at 1 µM.
Marked response: 1

Exam item: Given the entry CC1(C)S[C@@H]2[C@H](NC(=O)[C@H](N)c3ccc(O)cc3)C(=O)N2[C@H]1C(=O)O , report its measured activation at 1 µM.
Marked response: 8.3

Exam item: Given the entry Clc1ccc2c(c1)C(N1CCNCC1)=Nc1ccccc1O2 , report its measured activation at 1 µM.
Marked response: -1.5

* * *

Listed compounds paired with reported activation at 0.11 µM
Test system: hiPSC-derived neurons co-cultured with human primary astrocytes in 2D
assay procedure: Ca2+ transient oscillation assay (FDSS), 2D co-culture
Type: cell-based
condition label: Homo sapiens, 1 h; 0.11 µM; 60 min; read-out: Peak Number—2D Mean
Hi! Could you send only the number? It should be in %, unit omitted.

>>> print(df.to_string())
                      chemical_structure                       experimental_system     attribute_measured  result_unit  value_reported
0   Clc1ccc2c(c1)C(N1CCNCC1)=Nc1ccccc1O2  hiPSC-derived neurons co-cultured with human primary astrocytes in 2D  activation at 0.11 µM            %            -5.2
1                             NCCCC(=O)O  hiPSC-derived neurons co-cultured with human primary astrocytes in 2D  activation at 0.11 µM            %            -1.6
2  CN1CCN(C2=Nc3cc(Cl)ccc3Nc3ccccc32)CC1  hiPSC-derived neurons co-cultured with human primary astrocytes in 2D  activation at 0.11 µM            %            24.2
3       CN(C)CCCN1c2ccccc2Sc2ccc(Cl)cc21  hiPSC-derived neurons co-cultured with human primary astrocytes in 2D  activation at 0.11 µM            %             -27
4     C[C@]12N[C@H](Cc3ccccc31)c1ccccc12  hiPSC-derived neurons co-cultured with human primary astrocytes in 2D  activation at 0.11 µM            %           -82.8

Turning now to a further record.
Exam item: Given the entry CC1(C)S[C@@H]2[C@H](NC(=O)[C@H](N)c3ccc(O)cc3)C(=O)N2[C@H]1C(=O)O , report its measured activation at 0.11 µM.
Marked response: -10.5

* * *

Test system: hiPSC-derived neurons co-cultured with human primary astrocytes in 3D
assay procedure: Ca2+ transient oscillation assay (FDSS), 3D spheroids
Type: cell-based
condition label: 3.33 µM; 60 min
Listed compounds paired with reported Peak amplitude - 3D Mean

Consider the reported Peak amplitude - 3D Mean for these compounds:
>>> df
                                   compound                value_reported
0                                 Nc1ccncc1   46.1 % change from baseline
1                        CC(=O)Nc1ccc(O)cc1  106.4 % change from baseline
2           CNCCCC12CCC(c3ccccc31)c1ccccc12  130.1 % change from baseline
3  CC(NC(C)(C)C)C(=O)c1cccc(Cl)c1 (stereo not shown)  128.1 % change from baseline
4  CCn1cc(C(=O)O)c(=O)c2cc(F)c(N3CCNCC3)nc21  129.6 % change from baseline

Exam item: Given the entry CC[C@@H]1C(=O)OC[C@@H]1Cc1cncn1C , report its measured Peak amplitude - 3D Mean.
Marked response: 135.3 % change from baseline

Exam item: Given the entry N[C@@H](CCC(=O)O)C(=O)O [Glutamate] , report its measured Peak amplitude - 3D Mean.
Marked response: 108.3 % change from baseline

Exam item: Given the entry Cc1ccc(Nc2nccc(N(C)c3ccc4c(C)n(C)nc4c3)n2)cc1S(N)(=O)=O , report its measured Peak amplitude - 3D Mean.
Marked response: 107.5 % change from baseline

Exam item: Given the entry CCN(CC)CCCC(C)Nc1c2ccc(Cl)cc2nc2ccc(OC)cc12 (stereo not shown) , report its measured Peak amplitude - 3D Mean.
Marked response: 108.9 % change from baseline

Exam item: Given the entry OC(c1cc(C(F)(F)F)nc2c(C(F)(F)F)cccc12)C1CCCCN1 (stereo not shown) , report its measured Peak amplitude - 3D Mean.
Marked response: 139.0 % change from baseline

* * *

Test system: hiPSC-derived neurons co-cultured with human primary astrocytes in 3D
assay procedure: Ca2+ transient oscillation assay (FDSS), 3D spheroids
Type: cell-based
condition label: 100 µM; 60 min
attribute measured: Peak Number—3D Mean (% change from baseline)
Hi! Could you send only the number? It should be in % change from baseline, unit omitted.

Consider the reported Peak Number—3D Mean for these molecules:
>>> df
                                   molecule  value_reported
0  O=C1NC(=O)C(c2ccccc2)(c2ccccc2)N1 [Phenytoin]            −9.9
1      CC(=O)OCC[N+](C)(C)C [Acetylcholine]           −34.9
2           CC(=O)Oc1ccccc1C(=O)O [Aspirin]            −8.2

Exam item: Given the entry NC(=O)N1c2ccccc2C=Cc2ccccc21 [Carbamazepine] , report its measured Peak Number—3D Mean.
Marked response: −21.5

* * *

Tested on: hiPSC-derived neurons co-cultured with human primary astrocytes in 2D
assay procedure: Ca2+ transient oscillation assay (FDSS), 2D co-culture
Assay type: cell-based
condition label: Homo sapiens, 1 h; 0.11 µM; 60 min; read-out: Peak width - 2D Mean
Criterion: activation at 0.11 µM meeting or surpassing 20%. Met: true. Not met: false.

Answered examples (2):
                         chemical_structure    cat
0        C[C@]12N[C@H](Cc3ccccc31)c1ccccc12  false
1  CC1(C)S[C@@H]2[C@H](NC(=O)[C@H](N)c3ccc(O)cc3)C(=O)N2[C@H]1C(=O)O   true

Note: attention shifts to another entry.
Exam item: Say whether NCCCC(=O)O shows activation at 0.11 µM of 20% or more.
Marked response: false

* * *

Test system: hiPSC-derived neurons co-cultured with human primary astrocytes in 3D
assay procedure: Ca2+ transient oscillation assay (FDSS), 3D spheroids
Format: cell-based
condition label: 1 µM; 60 min
Experimental: In this study, we used cryopreserved excitatory neurons that were differentiated from human induced pluripotent stem cells (hiPSCs; Cat #: EX-SeV-CW50065) (Elixirgen Scientific, Inc., Baltimore, MD, USA). […] Prior to the fluorescence measurements, all wells to be measured were treated with 0.04% dimethyl sulfoxide (DMSO) to stabilize the oscillation signal. […] The effects of the test compound were recorded again starting 60 min after the administration of compounds, for 20 min. […]
attribute measured: Peak amplitude - 3D Mean (% change from baseline)
Hi! Could you send only the number? It should be in % change from baseline, unit omitted.

Consider the reported Peak amplitude - 3D Mean for these compounds:
>>> df
                                   compound        attribute_measured  value_reported
0  Clc1ccc2c(c1)C(N1CCNCC1)=Nc1ccccc1O2 [Amoxapine]  Peak amplitude - 3D Mean           102.7
1  CN1CCN(C2=Nc3cc(Cl)ccc3Nc3ccccc32)CC1 [Clozapine]  Peak amplitude - 3D Mean           129.4

Exam item: Field: Peak amplitude - 3D Mean (hiPSC-derived neurons co-cultured with human primary astrocytes in 3D). Entry: CN(C)CCCN1c2ccccc2Sc2ccc(Cl)cc21 [Chlorpromazine]
Marked response: 102.4
